Assay: in vitro
Conditions: African green monkey
property-label: CC50 at 24 h

Prompt: Please give the measured CC50 at 24 h for this molecule: COCCOC(=O)C1=C(C)NC(C)=C(C(=O)OC/C=C/c2ccccc2)C1c1cccc([N+](=O)[O-])c1 (stereo not shown)
Completion: > 100 µM

----------
Assay: cytotoxicity in Vero E6 cells, CCK-8 assay
Settings: African green monkey
Structures can show the parent of a compound that is named as a salt.
Could you please report measured CC50 at 24 h for the items listed next?

Count: 2. Required value per item: CC50 at 24 h.
1. COC(=O)C1=C(C)NC(C)=C(C(=O)OCCN(C)Cc2ccccc2)C1c1cccc([N+](=O)[O-])c1 (centres unmarked) [nicardipine HCI, nicardipine HCl]
2. NCCOB(c1ccccc1)c1ccccc1 [2ABP, 2-aminoethyl diphenylborinate]

Completion:
1. > 100 µM
2. > 200 µM

These data points were gathered from paper PMC7752915.
